system: Aspergillus flavus; assay: Antifungal activity against Aspergillus flavus after 16 to 18 hrs by serial dilution method; type: functional; conditions: Aspergillus flavus

molecule-smiles: Cc1ccccc1OCc1ccccc1-c1nn(CN2CCOCC2)c(=S)o1
scale-unit: mg/L
MIC: 12.5
--
molecule-smiles: CCSc1nnc(-c2ccccc2COc2ccc(C)cc2)o1
scale-unit: mg/L
MIC: 25
--
molecule-smiles: Cc1ccc(OCc2ccccc2-c2nnc(-c3cccc(Br)c3)o2)cc1
scale-unit: mg/L
MIC: 25
--
molecule-smiles: Clc1ccc(OCc2ccccc2-c2nnc(-c3ccc(Cl)cc3)o2)cc1
scale-unit: mg/L
MIC: 25
--
molecule-smiles: Cc1cc(C)cc(-c2nnc(-c3ccccc3COc3ccccc3C)o2)c1
scale-unit: mg/L
MIC: 12.5
--
molecule-smiles: Cc1ccccc1OCc1ccccc1-c1nnc(-c2cccc(Br)c2)o1
scale-unit: mg/L
MIC: 25
--
molecule-smiles: Cc1ccc(OCc2ccccc2-c2nnc(SCc3cccc(C)c3)o2)cc1
scale-unit: mg/L
MIC: 12.5
--
molecule-smiles: Cc1cccc(CSc2nnc(-c3ccccc3COc3cccc(C)c3)o2)c1
scale-unit: mg/L
MIC: 12.5
--
molecule-smiles: Cc1ccc(OCc2ccccc2-c2nnc(SCc3ccc(Cl)cc3)o2)cc1
scale-unit: mg/L
MIC: 12.5
--
molecule-smiles: Cc1cccc(OCc2ccccc2-c2nnc(-c3cccc(Br)c3)o2)c1
scale-unit: mg/L
MIC: 25
--
molecule-smiles: Cc1cc(C)cc(-c2nnc(-c3ccccc3COc3ccc(Cl)cc3)o2)c1
scale-unit: mg/L
MIC: 12.5

---

system: Escherichia coli; assay: Antibacterial activity against Escherichia coli after 16 to 18 hrs by serial dilution method; assay type: functional

molecule-smiles: Cc1cccc(OCc2ccccc2-c2nnc(-c3ccccc3)o2)c1
limit-qualifier: <
inhibition zone (IZ) [mm]: 10

molecule-smiles: Cc1cc(C)cc(-c2nnc(-c3ccccc3COc3ccccc3C)o2)c1
limit-qualifier: =
inhibition zone (IZ) [mm]: 11

molecule-smiles: Clc1ccc(OCc2ccccc2-c2nnc(SCc3ccc(Cl)cc3Cl)o2)cc1
limit-qualifier: =
inhibition zone (IZ) [mm]: 16

molecule-smiles: Cc1ccc(OCc2ccccc2-c2nnc(SCc3ccccc3)o2)cc1
limit-qualifier: <
inhibition zone (IZ) [mm]: 10

molecule-smiles: Cc1cccc(OCc2ccccc2-c2nnc(SCc3ccc(Cl)cc3Cl)o2)c1
limit-qualifier: =
inhibition zone (IZ) [mm]: 16

molecule-smiles: Cc1ccccc1OCc1ccccc1-c1nnc(-c2cccc3ncccc23)o1
limit-qualifier: <
inhibition zone (IZ) [mm]: 10

molecule-smiles: Cc1ccc(OCc2ccccc2-c2nn(CNc3ccc(Cl)cc3C(=O)C(F)(F)F)c(=S)o2)cc1
limit-qualifier: <
inhibition zone (IZ) [mm]: 10

molecule-smiles: Cc1cccc(OCc2ccccc2-c2nn(CN3CCOCC3)c(=S)o2)c1
limit-qualifier: =
inhibition zone (IZ) [mm]: 11

molecule-smiles: Cc1cccc(OCc2ccccc2-c2nn(CNc3cc(C)ccc3Cl)c(=S)o2)c1
limit-qualifier: <
inhibition zone (IZ) [mm]: 10

molecule-smiles: Cc1ccc(OCc2ccccc2-c2nnc(-c3cccnc3Cl)o2)cc1
limit-qualifier: =
inhibition zone (IZ) [mm]: 11

---

system: Aspergillus fumigatus; experiment: Antifungal activity against Aspergillus fumigatus after 16 to 18 hrs by serial dilution method; format: functional; details: Aspergillus fumigatus
reported-property: MIC (µg/mL)

molecule-smiles: COc1cc(-c2nnc(-c3ccccc3COc3cccc(C)c3)o2)cc(OC)c1OC
reported-property: MIC
experimental-result: 6.25

molecule-smiles: Cc1ccc(OCc2ccccc2-c2nn(CNc3ccc(Cl)cc3C(=O)C(F)(F)F)c(=S)o2)cc1
reported-property: MIC
experimental-result: 25

molecule-smiles: COc1cc(-c2nnc(-c3ccccc3COc3ccc(Cl)cc3)o2)cc(OC)c1OC
reported-property: MIC
experimental-result: 6.25

molecule-smiles: Clc1ccc(OCc2ccccc2-c2nnc(-c3cccc(Br)c3)o2)cc1
reported-property: MIC
experimental-result: 25

molecule-smiles: Cc1cccc(OCc2ccccc2-c2nnc(SCc3ccc(Cl)cc3Cl)o2)c1
reported-property: MIC
experimental-result: 6.25

molecule-smiles: CCSc1nnc(-c2ccccc2COc2ccc(Cl)cc2)o1
reported-property: MIC
experimental-result: 25

molecule-smiles: Fc1ccccc1-c1nnc(-c2ccccc2COc2ccc(Cl)cc2)o1
reported-property: MIC
experimental-result: 6.25

molecule-smiles: Cc1ccc(OCc2ccccc2-c2nnc(SCc3ccccc3)o2)cc1
reported-property: MIC
experimental-result: 25

molecule-smiles: COc1cc(-c2nnc(-c3ccccc3COc3ccc(C)cc3)o2)cc(OC)c1OC
reported-property: MIC
experimental-result: 6.25

molecule-smiles: Cc1cccc(OCc2ccccc2-c2nnc(-c3cccc4ncccc34)o2)c1
reported-property: MIC
experimental-result: 25
